Reference for the values: PubChem BioAssay (NCI)

Would you mind telling me the reported growth of each entry?
Test system: HOP-62 NSCLC
Test: NCI-60 one-dose screen, 48 h (100 = growth as untreated, 0 = no growth, -100 = all killed)
Conditions: 10 µM unless noted
The panel holds about 83,000 compounds, 20% with a hit somewhere; the sample as a whole holds those more often.
State just the number; it will be interpreted in %.

Notebook: Cc1ncc(C(=O)Nc2ccc(CN3CCN(C)CC3)c(C(F)(F)F)c2)cc1C#Cc1cncc2ncccc12 , growth read as 59.4

Notebook: COc1ccccc1NC(=O)c1sc2nc3c(cc2c1N)C(=O)CCC3 , growth read as 100

Notebook: O=C(NCCNC(=O)Oc1cccc2ccccc12)Oc1cccc2ccccc12 , growth read as 84.7

Notebook: C#C[C@]1(O)CCC2C3CCc4cc(O)ccc4C3CC[C@@]21C (stereo not given in full) , growth read as 35.4

Notebook: [N-]=[N+]=NCc1cccc(/C(O)=C/C(=O)C(=O)O)c1 , growth read as 94.5

###

System: MALME-3M melanoma
Assay: NCI-60 one-dose screen, 48 h
Conditions: 10 µM unless noted
Description: Cells are grown in 96 well plates and exposed to the test compound for 48 hours. Compounds are tested at a single concentration, which is 10^-5 M for most compounds. The reported endpoint is percent growth (GI% or GIPRCNT), where numbers from 0 - 100% represent growth inhibition, and numbers from -100% - 0 represent cell death. For example, a value of 40 represents 60% growth inhibition. A value of 0 means no net growth occurred over the course of the experiment. […]
This is part of a sample that, as a whole, favours compounds with a hit. Of some 83,000 tested, about 20% had one in any assay. The source made the active and inactive calls. The calls were made as follows: active = growth percent below 10; inactive = the rest.
In this exercise, the only acceptable responses are y = active, n = inactive

What did the test return for CC12CCC3C(=CCc4cc(O)ccc43)C1CCC2=O (stereo not given) ?
n

What did the test return for CCCCCCCCCCCCC1CCCC(C)C1 (stereo not given) ?
n

What did the test return for COc1ccc(/C=C/C(=O)c2cccc(NS(C)(=O)=O)c2)cc1 ?
n

What did the test return for N=C1c2nc3n(c2C(=O)c2nc4n(c21)CCCCC4)CCCCC3 ?
n

What did the test return for CSc1nc(-c2ccc(O)cc2O)c2c(=O)[nH]c(Nc3ccc(S(=O)(=O)Nc4nc(C)cc(C)n4)cc3)nc2n1 ?
n

What did the test return for O=CN1N=C(c2ccc(Cl)cc2)CC1c1cccc(Nc2ccnc3cc(Cl)ccc23)c1 (stereo not given) ?
y

What did the test return for O=C1/C=C/[C@@H](O)[C@@H]2C[C@@H](O)C[C@H]2/C=C/CCC[C@H](CO)O1 ?
y

What did the test return for Cc1cc2c(cc1C)[n+](Cc1ccc3ccccc3n1)cn2Cc1ccc2ccccc2n1 ?
y

What did the test return for OC(c1cc(-c2cccc(Cl)c2)nc2ccccc12)C1CCCCN1 (stereo not given) ?
y

What did the test return for Oc1c(N=Nc2nn[nH]n2)ccc2ccccc12 ?
y

###

System: HCC-2998 colon
Experiment: NCI-60 one-dose screen, 48 h (100 = growth as untreated, 0 = no growth, -100 = all killed)
Conditions: 10 µM unless noted
About 83,000 compounds went through this panel and 20% of them were active in at least one assay; those are over-represented in the sample as a whole.
Would you mind telling me the reported growth of each entry?
State just the number; it will be interpreted in %.

Notebook: O=C1OC2(c3ccccc31)c1ccccc1-c1ccccc12 , growth read as 88.4

Notebook: O=C(COc1cccc(/C=C2\Oc3ccc4ccccc4c3C2=O)c1)c1ccc(Cl)cc1 , growth read as 87.5

Notebook: O=C(Nc1ccc(Cl)cc1)Nc1ccccc1CNc1nc(Nc2ccc(OCCN3CCCC3)cc2)ncc1Cl , growth read as -21.1

Notebook: O=C(N/N=C/c1cccc(O)c1)c1ccc(C(F)(F)F)nc1Nc1cccc(C(F)(F)F)c1 , growth read as 10.2

Notebook: OC(c1ccccc1)C(NCc1ccccc1)c1ccccc1 (centres undefined) , growth read as 105

Notebook: Cc1[nH]c(=O)[nH]c(=O)c1CCSSCCc1c(C)[nH]c(=O)[nH]c1=O , growth read as 102

Notebook: O=c1[nH]c(N2CCC(Cc3ccccc3)CC2)nc2sc3c(c12)CCCC3 , growth read as 103

Notebook: Cc1ccc(/C=C(/C#N)n2nnc3ncccc32)cc1 , growth read as 15.7

Notebook: O=C(CN1CCN(c2ccc(Cl)cc2)CC1)N1CCN(c2nnc(-c3ccc(Cl)cc3)c(-c3ccc(Cl)cc3)n2)CC1 , growth read as 84.9

Notebook: Nc1ccccc1-c1ccn[nH]1 , growth read as 97.2

Notebook: O=C1/C(=C/c2ccccc2O)C(=S)SN1Cc1ccco1 , growth read as 108

Notebook: C[C@@H]1[C@H]2[C@H](C=C3[C@@H]4CC[C@H]5Cc6nc7c(nc6C[C@]5(C)[C@H]4C[C@@H](O)[C@@]32C)C[C@@H]2CC[C@H]3C4=C[C@@H]5O[C@@]6(CC[C@](C)(CO)O6)[C@@H](C)[C@@]5(O)[C@@]4(C)[C@H](O)C[C@@H]3[C@@]2(C)C7)O[C@]12CCC(C)(C)O2 , growth read as 66.5

Notebook: O=Nc1c2cccnc2n2nnc3ccc(Cl)cc3c12 , growth read as 93.1

Notebook: O=C(CC1Sc2ccccc2NC1=O)NNc1cccc(Cl)c1Cl (centres undefined) , growth read as 88.5

Notebook: Oc1c(Cl)cc(Cl)c(Cl)c1Cc1c(O)c(Cl)cc(Cl)c1Cl , growth read as 7.48

Notebook: CCOc1cc(/C=C/C(=O)CC(=O)/C=C/c2ccc(OC(=O)CNc3nc4ccc(OC)cc4s3)c(OCC)c2)ccc1OC(=O)CNc1nc2ccc(OC)cc2s1 , growth read as 39.6

Notebook: COC(=O)C1(NC(=O)CNC(=O)OCc2ccccc2)CCCC1 , growth read as 108

Notebook: Cc1cc(Br)c(C)cc1Br , growth read as 115

Notebook: C(#Cc1ccccc1C#Cc1ccccn1)c1ccc(OCCCCCCOc2ccc(C#Cc3ccccc3C#Cc3ccccn3)cc2)cc1 , growth read as 58.8
